Sourced from patent US20180185504A1

Target Or Test System: T1, hPRLR.mmh (soluble monomeric human PRLR) (human)
T1 construct: soluble monomeric PRLR protein
T1 chain: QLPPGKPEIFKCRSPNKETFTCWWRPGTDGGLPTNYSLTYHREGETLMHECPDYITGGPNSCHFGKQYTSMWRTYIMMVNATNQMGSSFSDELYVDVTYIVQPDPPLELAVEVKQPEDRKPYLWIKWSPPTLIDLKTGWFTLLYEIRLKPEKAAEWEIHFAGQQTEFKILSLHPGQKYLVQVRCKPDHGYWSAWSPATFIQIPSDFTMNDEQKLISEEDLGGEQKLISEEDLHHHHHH
Protocol Description: SPR (Biacore), antibody capture, 37 C
Metric Name: log10 of koff (log10 of the value in s⁻¹)

{"columns": ["Binder", "log10 of koff"],
 "data": [
  ["H1H6795P (antibody, human IgG1, V domains shown, human IgG1 Fc (H1H)) VH: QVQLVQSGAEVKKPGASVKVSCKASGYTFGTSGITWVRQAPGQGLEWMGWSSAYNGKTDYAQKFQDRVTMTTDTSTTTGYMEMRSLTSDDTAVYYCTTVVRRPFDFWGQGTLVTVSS VL: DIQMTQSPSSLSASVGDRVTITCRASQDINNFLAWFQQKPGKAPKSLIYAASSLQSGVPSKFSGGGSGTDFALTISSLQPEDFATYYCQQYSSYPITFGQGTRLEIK", -2.28],
  ["H1H6975N (antibody, human IgG1, V domains shown, also called H2M6975N) VH: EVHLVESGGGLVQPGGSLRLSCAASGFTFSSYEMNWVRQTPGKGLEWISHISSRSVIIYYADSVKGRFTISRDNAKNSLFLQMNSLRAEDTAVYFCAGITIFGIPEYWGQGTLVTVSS VL: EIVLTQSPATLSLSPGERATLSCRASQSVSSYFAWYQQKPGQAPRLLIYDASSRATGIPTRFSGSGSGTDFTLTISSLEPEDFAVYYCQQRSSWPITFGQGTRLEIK", -3.56],
  ["H1H6960N (antibody, human IgG1, V domains shown, also called H2M6960N) VH: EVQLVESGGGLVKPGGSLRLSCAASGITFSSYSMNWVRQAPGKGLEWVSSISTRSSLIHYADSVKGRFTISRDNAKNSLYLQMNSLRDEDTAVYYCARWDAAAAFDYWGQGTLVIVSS VL: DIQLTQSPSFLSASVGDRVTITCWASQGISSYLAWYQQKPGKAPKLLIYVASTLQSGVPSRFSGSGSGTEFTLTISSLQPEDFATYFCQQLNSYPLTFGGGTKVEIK", -2.70],
  ["H1H6762P (antibody, human IgG1, V domains shown, human IgG1 Fc (H1H)) VH: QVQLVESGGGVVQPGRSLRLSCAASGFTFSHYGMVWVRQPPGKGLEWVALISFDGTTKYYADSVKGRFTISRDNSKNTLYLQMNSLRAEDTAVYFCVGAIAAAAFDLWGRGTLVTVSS VL: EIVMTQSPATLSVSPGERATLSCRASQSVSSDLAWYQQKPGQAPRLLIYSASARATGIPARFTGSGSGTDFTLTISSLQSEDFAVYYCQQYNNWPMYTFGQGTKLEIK", -3.34],
  ["H1H6774P (antibody, human IgG1, V domains shown, human IgG1 Fc (H1H)) VH: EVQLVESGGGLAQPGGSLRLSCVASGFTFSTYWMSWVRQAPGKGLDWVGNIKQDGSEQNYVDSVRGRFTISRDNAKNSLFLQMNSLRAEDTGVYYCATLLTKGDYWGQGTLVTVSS VL: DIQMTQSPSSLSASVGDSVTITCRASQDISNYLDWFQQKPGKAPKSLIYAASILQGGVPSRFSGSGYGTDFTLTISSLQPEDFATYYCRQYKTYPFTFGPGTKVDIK", -2.50]
]}
